# pKi per record follows
Target: 5-hydroxytryptamine receptor 2C (Rattus norvegicus, UniProt P08909)
Sequence (P08909 whole entry): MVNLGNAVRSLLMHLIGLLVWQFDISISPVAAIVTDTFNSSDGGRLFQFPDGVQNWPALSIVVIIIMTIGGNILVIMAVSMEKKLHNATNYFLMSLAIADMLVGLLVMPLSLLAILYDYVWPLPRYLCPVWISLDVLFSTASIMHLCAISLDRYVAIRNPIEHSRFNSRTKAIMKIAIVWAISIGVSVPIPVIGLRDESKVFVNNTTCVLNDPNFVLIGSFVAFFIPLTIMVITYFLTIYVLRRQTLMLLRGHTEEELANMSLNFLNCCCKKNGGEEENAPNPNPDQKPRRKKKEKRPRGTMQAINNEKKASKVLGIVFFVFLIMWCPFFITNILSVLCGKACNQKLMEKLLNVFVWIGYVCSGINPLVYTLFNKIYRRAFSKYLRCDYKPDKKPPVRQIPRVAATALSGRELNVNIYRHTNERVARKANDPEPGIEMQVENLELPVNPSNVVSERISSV
pKi: −log10 of the molar value.
measure name: pKi

> print(dat)
                               given.smiles  recorded.measurement
1  COc1ccc2c(c1)c1c(n2C)CCN(CCCOc2ccc(F)cc2)C1                  6.82
2  Cn1c2c(c3ccccc31)CN(C/C=C/CCc1ccccc1)CC2                  6.61
3  Cn1c2c(c3ccccc31)CN(CCCOc1ccc([N+](=O)[O-])cc1)CC2                  6.52
